Hello, the source for this data is paper PMC4774911, in case you need it.

Target: PRKD2 (Homo sapiens)
Sequence (Q9BZL6 1-878): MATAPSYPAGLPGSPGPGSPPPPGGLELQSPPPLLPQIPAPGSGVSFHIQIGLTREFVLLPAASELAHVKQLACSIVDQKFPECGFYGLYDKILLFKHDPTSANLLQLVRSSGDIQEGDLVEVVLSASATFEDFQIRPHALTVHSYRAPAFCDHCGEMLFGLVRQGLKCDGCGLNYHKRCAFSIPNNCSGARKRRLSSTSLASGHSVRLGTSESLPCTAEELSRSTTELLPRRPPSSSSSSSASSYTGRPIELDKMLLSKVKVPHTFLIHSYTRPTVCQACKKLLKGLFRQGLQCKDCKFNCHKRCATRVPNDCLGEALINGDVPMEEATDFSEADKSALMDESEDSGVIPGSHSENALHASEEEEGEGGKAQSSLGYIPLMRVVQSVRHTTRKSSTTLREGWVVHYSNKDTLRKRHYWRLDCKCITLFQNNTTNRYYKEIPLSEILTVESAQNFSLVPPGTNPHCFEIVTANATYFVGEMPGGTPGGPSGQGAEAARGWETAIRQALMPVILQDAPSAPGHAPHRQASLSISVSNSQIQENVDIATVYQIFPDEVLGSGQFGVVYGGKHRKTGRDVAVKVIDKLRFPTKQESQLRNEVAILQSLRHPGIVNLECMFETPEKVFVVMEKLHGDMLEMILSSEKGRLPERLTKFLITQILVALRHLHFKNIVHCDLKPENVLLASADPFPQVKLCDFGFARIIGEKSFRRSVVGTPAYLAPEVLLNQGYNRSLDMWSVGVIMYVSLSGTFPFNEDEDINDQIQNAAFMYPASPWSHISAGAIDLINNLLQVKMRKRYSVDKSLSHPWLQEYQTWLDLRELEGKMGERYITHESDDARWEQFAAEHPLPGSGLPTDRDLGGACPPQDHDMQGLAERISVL
measured.quantity: IC50 (nM)
State just the number; it will be interpreted in nM.

QUERY: Supply IC50 value. Item: CN(C)CC(O)COc1ccc(Nc2ncc([N+](=O)[O-])c(Nc3ccccc3O)n2)cc1.O=C(O)C(F)(F)F (stereo not shown)
RESULT: 1900

* * *

Biological target: TNK2 (Homo sapiens)
Sequence (Q07912 whole entry): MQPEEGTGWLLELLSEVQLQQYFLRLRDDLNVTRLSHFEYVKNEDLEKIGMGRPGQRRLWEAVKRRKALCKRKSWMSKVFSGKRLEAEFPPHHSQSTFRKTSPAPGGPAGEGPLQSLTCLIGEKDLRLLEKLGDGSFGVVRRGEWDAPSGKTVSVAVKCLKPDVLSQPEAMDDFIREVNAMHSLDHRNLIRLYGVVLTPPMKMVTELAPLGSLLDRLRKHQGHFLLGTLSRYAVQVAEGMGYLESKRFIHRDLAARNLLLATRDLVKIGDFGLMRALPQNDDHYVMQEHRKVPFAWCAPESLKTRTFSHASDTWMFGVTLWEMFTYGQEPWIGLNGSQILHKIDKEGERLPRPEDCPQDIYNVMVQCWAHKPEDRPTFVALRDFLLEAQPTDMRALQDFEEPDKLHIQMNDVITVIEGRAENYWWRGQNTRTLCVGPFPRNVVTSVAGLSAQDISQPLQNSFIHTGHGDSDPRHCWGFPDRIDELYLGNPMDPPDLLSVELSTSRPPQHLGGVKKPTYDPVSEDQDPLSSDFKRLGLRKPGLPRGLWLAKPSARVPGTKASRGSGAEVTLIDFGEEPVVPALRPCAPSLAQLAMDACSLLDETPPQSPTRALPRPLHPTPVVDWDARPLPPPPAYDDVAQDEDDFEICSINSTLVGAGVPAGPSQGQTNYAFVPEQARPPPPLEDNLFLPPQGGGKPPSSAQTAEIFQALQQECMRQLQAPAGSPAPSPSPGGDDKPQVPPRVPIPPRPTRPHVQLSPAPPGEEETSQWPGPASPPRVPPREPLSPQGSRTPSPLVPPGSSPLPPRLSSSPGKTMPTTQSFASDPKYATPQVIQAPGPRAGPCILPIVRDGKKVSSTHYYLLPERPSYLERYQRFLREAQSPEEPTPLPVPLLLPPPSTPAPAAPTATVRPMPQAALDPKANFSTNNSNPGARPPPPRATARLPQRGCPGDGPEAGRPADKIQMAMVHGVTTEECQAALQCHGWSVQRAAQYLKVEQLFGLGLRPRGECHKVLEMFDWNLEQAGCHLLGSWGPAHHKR
Experiment: biochemical
measured.quantity: pIC50
Recall that pIC50 is obtained by taking minus log10 of the concentration measured in molar.

QUERY: Supply pIC50 value. Item: `CN1CCN(c2ccc(Nc3ncc(C#N)c(Nc4ccccc4C(N)=O)n3)cc2)CC1.Cl`
RESULT: 6.80

* * *

Molecular target: MAP3K6 (Homo sapiens)
Sequence (O95382 1-1288): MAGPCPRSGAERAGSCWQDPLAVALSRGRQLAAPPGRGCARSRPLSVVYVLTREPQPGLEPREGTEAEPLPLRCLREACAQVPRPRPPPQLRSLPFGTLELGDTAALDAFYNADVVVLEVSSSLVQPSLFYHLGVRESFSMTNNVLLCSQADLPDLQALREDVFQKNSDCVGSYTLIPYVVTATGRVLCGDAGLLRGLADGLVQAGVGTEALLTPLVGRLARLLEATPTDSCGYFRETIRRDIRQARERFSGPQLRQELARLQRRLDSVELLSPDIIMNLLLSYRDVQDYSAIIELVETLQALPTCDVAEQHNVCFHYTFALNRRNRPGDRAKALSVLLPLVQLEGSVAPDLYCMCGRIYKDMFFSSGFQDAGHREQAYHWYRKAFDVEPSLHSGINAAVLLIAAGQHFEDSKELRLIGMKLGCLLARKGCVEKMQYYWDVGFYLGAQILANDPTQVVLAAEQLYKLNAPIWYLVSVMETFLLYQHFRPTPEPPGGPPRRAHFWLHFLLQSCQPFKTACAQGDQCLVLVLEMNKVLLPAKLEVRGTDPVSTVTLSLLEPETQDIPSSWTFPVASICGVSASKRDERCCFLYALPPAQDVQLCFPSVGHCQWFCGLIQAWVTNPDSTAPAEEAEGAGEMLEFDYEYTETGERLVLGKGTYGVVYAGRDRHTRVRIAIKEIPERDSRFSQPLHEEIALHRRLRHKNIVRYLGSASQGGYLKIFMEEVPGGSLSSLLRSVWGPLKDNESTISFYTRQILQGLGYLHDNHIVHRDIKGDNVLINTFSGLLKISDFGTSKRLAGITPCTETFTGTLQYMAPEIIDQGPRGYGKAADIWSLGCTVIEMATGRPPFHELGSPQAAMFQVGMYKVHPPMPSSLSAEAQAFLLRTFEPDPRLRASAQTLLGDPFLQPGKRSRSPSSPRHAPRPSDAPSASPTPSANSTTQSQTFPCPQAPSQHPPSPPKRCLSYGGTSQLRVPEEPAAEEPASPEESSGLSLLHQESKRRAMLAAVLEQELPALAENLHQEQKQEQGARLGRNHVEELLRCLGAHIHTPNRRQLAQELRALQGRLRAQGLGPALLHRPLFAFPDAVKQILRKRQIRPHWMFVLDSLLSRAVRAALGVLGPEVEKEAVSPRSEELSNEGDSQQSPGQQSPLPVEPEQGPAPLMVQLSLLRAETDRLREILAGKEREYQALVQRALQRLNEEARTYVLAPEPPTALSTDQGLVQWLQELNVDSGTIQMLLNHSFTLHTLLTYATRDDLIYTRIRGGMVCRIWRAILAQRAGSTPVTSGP
measured.quantity: IC50

QUERY: Supply IC50 value. Item: CN(C)CC(O)COc1ccc(Nc2ncc([N+](=O)[O-])c(Nc3ccccc3O)n2)cc1.O=C(O)C(F)(F)F (centres unmarked)
RESULT: > 20 µM

QUERY: Supply IC50 value. Item: `Cl.NCC1(c2nc(-c3ccc(Cl)c(O)c3)c(-c3ccncc3)[nH]2)CCCCC1`
RESULT: > 20 µM

* * *

Target: PRKACA (Homo sapiens)
measured.quantity: IC50 (µM)
State just the number; it will be interpreted in µM.

QUERY: Supply IC50 value. Item: `CN1CCN(c2ccc(Nc3ncc(C#N)c(Nc4ccccc4C(N)=O)n3)cc2)CC1.Cl`
RESULT: 1.5

* * *

measured.quantity: IC50 (nM)
State just the number; it will be interpreted in nM.

QUERY: Send back UniProt:P12931 IC50 of `Cl.NCC1(c2nc(-c3ccc(Cl)c(O)c3)c(-c3ccncc3)[nH]2)CCCCC1` only.
Sequence (P12931 whole entry): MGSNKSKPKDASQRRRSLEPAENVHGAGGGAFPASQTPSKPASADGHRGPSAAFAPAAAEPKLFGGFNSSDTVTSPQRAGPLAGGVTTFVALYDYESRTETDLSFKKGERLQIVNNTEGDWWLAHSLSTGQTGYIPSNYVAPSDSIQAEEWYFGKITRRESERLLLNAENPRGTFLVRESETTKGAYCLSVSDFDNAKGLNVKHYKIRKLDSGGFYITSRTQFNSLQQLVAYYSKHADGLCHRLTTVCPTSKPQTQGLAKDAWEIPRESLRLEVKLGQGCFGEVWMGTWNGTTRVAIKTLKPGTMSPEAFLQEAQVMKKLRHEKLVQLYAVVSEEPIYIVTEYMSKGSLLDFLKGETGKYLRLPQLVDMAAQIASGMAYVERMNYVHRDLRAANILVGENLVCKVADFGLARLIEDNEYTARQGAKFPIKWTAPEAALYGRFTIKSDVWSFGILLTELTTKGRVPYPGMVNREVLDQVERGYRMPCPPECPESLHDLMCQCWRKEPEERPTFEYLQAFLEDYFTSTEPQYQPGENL
RESULT: 290

* * *

Provide the recorded Kd for the entries that follow.
Target: UniProt O94804
Sequence (O94804 whole entry): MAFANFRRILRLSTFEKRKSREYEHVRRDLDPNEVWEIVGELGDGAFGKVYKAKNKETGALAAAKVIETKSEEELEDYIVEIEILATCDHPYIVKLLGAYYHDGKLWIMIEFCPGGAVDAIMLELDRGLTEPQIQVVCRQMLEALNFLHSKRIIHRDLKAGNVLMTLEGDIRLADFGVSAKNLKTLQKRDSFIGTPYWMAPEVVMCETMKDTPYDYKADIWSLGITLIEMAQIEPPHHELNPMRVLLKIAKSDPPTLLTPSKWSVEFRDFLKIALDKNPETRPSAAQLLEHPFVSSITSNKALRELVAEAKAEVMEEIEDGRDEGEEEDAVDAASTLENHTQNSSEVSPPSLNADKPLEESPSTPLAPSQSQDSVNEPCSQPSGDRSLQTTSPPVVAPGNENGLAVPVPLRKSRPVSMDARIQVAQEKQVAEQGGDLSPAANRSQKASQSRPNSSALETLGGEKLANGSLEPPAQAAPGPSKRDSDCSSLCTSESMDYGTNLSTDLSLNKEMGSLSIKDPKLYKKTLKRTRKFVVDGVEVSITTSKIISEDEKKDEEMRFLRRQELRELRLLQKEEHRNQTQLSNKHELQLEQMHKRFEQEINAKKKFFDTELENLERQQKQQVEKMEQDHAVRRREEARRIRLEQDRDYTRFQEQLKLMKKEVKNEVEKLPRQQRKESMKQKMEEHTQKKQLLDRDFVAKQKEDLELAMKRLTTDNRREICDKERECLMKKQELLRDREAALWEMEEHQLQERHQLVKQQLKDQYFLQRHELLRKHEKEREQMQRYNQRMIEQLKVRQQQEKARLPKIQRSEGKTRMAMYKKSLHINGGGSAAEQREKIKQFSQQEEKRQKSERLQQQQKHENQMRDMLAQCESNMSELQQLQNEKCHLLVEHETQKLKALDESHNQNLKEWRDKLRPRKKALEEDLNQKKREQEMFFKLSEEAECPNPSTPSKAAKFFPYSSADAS
Assay: biochemical
Conditions: read-out: KDapp
State just the number; it will be interpreted in nM.

QUERY: Supply Kd value. Item: `Cl.NCC1(c2nc(-c3ccc(Cl)c(O)c3)c(-c3ccncc3)[nH]2)CCCCC1`
RESULT: 30.4

QUERY: Supply Kd value. Item: CN(C)CC(O)COc1ccc(Nc2ncc([N+](=O)[O-])c(Nc3ccccc3O)n2)cc1.O=C(O)C(F)(F)F (centres unmarked)
RESULT: 3360

* * *

Target: JAK2 (Homo sapiens)
Sequence (O60674 whole entry): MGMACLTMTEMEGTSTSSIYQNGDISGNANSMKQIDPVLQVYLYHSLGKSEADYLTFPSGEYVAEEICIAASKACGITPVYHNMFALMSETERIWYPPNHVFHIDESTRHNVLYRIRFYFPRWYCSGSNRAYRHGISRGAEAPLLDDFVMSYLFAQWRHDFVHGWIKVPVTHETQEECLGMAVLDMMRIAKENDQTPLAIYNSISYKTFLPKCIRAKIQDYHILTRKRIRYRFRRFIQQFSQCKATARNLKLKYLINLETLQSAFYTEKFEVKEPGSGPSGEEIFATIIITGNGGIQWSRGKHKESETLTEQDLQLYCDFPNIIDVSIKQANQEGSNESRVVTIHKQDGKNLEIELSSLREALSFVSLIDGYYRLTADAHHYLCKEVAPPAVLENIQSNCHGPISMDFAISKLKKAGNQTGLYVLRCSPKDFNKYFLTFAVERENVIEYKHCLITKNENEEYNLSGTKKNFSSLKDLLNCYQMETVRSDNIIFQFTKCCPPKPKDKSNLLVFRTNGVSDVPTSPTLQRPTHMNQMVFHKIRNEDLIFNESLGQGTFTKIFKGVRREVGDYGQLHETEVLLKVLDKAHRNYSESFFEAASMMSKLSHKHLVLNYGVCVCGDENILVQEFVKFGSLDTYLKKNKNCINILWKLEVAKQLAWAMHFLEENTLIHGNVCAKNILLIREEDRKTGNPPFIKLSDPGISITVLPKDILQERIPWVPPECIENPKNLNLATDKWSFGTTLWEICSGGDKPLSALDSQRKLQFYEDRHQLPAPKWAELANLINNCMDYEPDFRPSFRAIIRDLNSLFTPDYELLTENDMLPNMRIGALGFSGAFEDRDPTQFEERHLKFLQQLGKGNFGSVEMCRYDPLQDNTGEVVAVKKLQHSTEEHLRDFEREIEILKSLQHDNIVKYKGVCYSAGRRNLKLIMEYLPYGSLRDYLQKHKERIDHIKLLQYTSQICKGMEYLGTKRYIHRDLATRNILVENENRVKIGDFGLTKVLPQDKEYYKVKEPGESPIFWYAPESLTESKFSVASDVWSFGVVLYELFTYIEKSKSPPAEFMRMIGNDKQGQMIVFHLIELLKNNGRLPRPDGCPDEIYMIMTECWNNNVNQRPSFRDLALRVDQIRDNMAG
pIC50: −log10 of the molar value.
measured.quantity: pIC50

QUERY: Supply pIC50 value. Item: Cl.NCC1(c2nc(-c3ccc(Cl)c(O)c3)c(-c3ccncc3)[nH]2)CCCCC1 [TCMDC-141154]
RESULT: < 4.70

* * *

Provide the recorded IC50 for the entries that follow.
State just the number; it will be interpreted in µM.

QUERY: Send back CDC42BPG (Homo sapiens, UniProt Q6DT37) IC50 of CN(C)CC(O)COc1ccc(Nc2ncc([N+](=O)[O-])c(Nc3ccccc3O)n2)cc1.O=C(O)C(F)(F)F (stereo not drawn) [TCMDC-141399] only.
RESULT: 9.6

QUERY: Send back CDC42BPG (Homo sapiens, UniProt Q6DT37) IC50 of Cl.NCC1(c2nc(-c3ccc(Cl)c(O)c3)c(-c3ccncc3)[nH]2)CCCCC1 [TCMDC-141154] only.
RESULT: 8

QUERY: Send back CDC42BPG (Homo sapiens, UniProt Q6DT37) IC50 of CN1CCN(c2ccc(Nc3ncc(C#N)c(Nc4ccccc4C(N)=O)n3)cc2)CC1.Cl [TCMDC-134116] only.
RESULT: 1

* * *

Target chain: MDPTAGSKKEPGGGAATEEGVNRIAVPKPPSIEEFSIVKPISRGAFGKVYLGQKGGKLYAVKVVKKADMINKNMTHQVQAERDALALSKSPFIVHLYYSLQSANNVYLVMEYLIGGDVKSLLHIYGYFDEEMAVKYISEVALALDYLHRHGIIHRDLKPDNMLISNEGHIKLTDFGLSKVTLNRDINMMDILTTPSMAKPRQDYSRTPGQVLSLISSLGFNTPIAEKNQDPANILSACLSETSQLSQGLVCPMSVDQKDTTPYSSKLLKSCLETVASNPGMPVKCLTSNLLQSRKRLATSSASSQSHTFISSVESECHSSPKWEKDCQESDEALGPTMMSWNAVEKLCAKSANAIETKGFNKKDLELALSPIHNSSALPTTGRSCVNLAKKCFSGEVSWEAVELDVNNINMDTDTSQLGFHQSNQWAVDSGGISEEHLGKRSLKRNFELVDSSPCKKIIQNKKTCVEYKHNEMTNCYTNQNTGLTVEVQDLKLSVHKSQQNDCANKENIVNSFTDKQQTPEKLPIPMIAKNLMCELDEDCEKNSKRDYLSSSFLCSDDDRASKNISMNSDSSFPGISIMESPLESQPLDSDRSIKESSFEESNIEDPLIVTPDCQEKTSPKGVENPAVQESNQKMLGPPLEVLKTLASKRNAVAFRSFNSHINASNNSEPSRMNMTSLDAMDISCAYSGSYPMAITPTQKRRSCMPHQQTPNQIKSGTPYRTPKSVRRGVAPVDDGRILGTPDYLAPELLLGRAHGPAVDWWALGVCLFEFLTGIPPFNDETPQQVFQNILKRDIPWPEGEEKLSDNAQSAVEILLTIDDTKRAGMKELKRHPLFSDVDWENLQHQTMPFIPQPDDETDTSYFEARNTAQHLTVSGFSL
pIC50: −log10 of the molar value.
measured.quantity: pIC50

QUERY: Supply pIC50 value. Item: CN(C)CC(O)COc1ccc(Nc2ncc([N+](=O)[O-])c(Nc3ccccc3O)n2)cc1.O=C(O)C(F)(F)F (centres unmarked) [TCMDC-141399]
RESULT: < 4.70

QUERY: Supply pIC50 value. Item: Cl.NCC1(c2nc(-c3ccc(Cl)c(O)c3)c(-c3ccncc3)[nH]2)CCCCC1 [TCMDC-141154]
RESULT: < 4.70
